target: OXA-15 (Pseudomonas aeruginosa, UniProt Q51574); test: biochemical
Sequence (Q51574 22-275): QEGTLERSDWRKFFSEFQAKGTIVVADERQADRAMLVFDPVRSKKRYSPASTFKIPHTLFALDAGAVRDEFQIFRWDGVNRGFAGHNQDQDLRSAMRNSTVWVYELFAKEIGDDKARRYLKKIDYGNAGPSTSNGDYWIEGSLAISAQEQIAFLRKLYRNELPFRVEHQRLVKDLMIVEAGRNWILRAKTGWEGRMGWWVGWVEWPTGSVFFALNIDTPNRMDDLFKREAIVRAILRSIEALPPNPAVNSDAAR
measurement_type: log10 IC50 (log10 of the value in nM)
// stored as log10 of IC50 expressed in nM

Past entries and their recorded results:
In [3]: df
Out[3]:
                                   compound  measured_number
0  O=C(CO)Nc1ccn(C2=CC3CN(C2)C(=O)N3OS(=O)(=O)[O-])n1.[Na+] (centres unmarked)             1.78
1  O=C(CCO)Nc1ccn(C2=CC3CN(C2)C(=O)N3OS(=O)(=O)[O-])n1.[Na+] (centres unmarked)             1.88
2  O=C1N2CC(n3ccc(CO)n3)=CC(C2)N1OS(=O)(=O)O (centres unmarked)             2.28
3  NCCc1ccn(C2=CC3CN(C2)C(=O)N3OS(=O)(=O)O)n1 (centres unmarked)             2.26
4  NCCONC(=O)c1cn(C2=CC3CN(C2)C(=O)N3OS(=O)(=O)O)nn1 (centres unmarked)             1.61

Give the reported log10 IC50 for O=C1N2CC(n3cc(CO)cn3)=CC(C2)N1OS(=O)(=O)[O-].[Na+] (centres unmarked) (system: OXA-15 (Pseudomonas aeruginosa, UniProt Q51574)).
1.74

Write down the reported log10 IC50 of O=C1N2CC(n3cc(F)cn3)=CC(C2)N1OS(=O)(=O)[O-].[Na+] (centres unmarked) [Example 14, sulfate] , test system: OXA-15 (Pseudomonas aeruginosa, UniProt Q51574).
1.72

Value wanted: log10 IC50 (OXA-15 (Pseudomonas aeruginosa, UniProt Q51574)) of entry O=C(Nc1nccs1)c1ccn(C2=CC3CN(C2)C(=O)N3OS(=O)(=O)[O-])n1.[Na+] (centres unmarked)
1.08
